Data provenance: the NIST ThermoML archive (doi:10.1021/je020196d)

# method.notes: activity coefficient (dimensionless); of the first substance listed, at infinite dilution; xn = mol fraction of the nth substance listed
# setup.conditions: 333.15 K; Liquid; Chromatography; x1 = 0
Task for the reader: assign each of the following compounds its reported activity coefficient.
Give bare numbers.

Answered examples (5):
CCc1ccccc1 [ethylbenzene] + OCCOCCOCCO	10.3
CCCCCCCC [octane] + OCCOCCOCCO	113
Cc1ccccc1 [toluene] + OCCOCCOCCOCCO	4.5
CCc1ccccc1 [ethylbenzene] + OCCOCCOCCOCCO	6.39
c1ccccc1 [benzene] + OCCOCCOCCO	4.38

Hey, quick one: what's activity coefficient for each of these?
1. c1ccccc1 [benzene] + OCCOCCOCCOCCO
2. CCCCCCC [heptane] + OCCOCCOCCO

1: 2.99; 2: 82.7

Hey, quick one: what's activity coefficient for each of these?
1. CCCCCCCCCC [decane] + OCCOCCOCCO
2. CCCCCCCCCC [decane] + OCCOCCOCCOCCO
3. CCCCCCC [heptane] + OCCOCCOCCOCCO
4. Cc1ccccc1 [toluene] + OCCOCCOCCO
5. CCCCCCCCC [nonane] + OCCOCCOCCO
6. CCCCCCCCC [nonane] + OCCOCCOCCOCCO

1. 219
2. 123
3. 50.2
4. 6.8
5. 156
6. 92.3

###

# method.notes: activity coefficient (dimensionless); of the first substance listed, at infinite dilution; xn = mol fraction of the nth substance listed
# setup.conditions: 323.15 K; Liquid; Chromatography; x1 = 0
One threshold, 90, splits the recorded activity coefficient values: lower ones are criterion met, equal or higher ones are criterion not met.

Before answering, review these 6 worked examples.
c1ccccc1 [benzene] + OCCOCCOCCO	criterion met
Cc1ccccc1 [toluene] + OCCOCCOCCO	criterion met
CCCCCCCCC [nonane] + OCCOCCOCCO	criterion not met
CCCCCCCCCC [decane] + OCCOCCOCCO	criterion not met
CCCCCCCC [octane] + OCCOCCOCCO	criterion not met
CCCCCCC [heptane] + OCCOCCOCCO	criterion not met

Read the next record carefully.
Field: below-cutoff. Rule: recorded activity coefficient strictly less than 90. Subject: CCc1ccccc1 [ethylbenzene] + OCCOCCOCCO
criterion met

###

# method.notes: activity coefficient (dimensionless); of the first substance listed, at infinite dilution; xn = mol fraction of the nth substance listed
# setup.conditions: 383.15 K; Liquid; Chromatography; x1 = 0
metric: activity coefficient
One number for each entry.

Answered examples (2):
CCc1ccccc1 [ethylbenzene] + OCCOCCOCCOCCO	4.73
CCCCCCCCC [nonane] + OCCOCCOCCOCCO	42.9

Hey, quick one: what's activity coefficient for each of these?
1. c1ccccc1 [benzene] + OCCOCCOCCO
2. Cc1ccccc1 [toluene] + OCCOCCOCCOCCO

1: 3.82; 2: 3.46

Hey, quick one: what's activity coefficient for each of these?
1. CCCCCCCCCC [decane] + OCCOCCOCCO
2. CCc1ccccc1 [ethylbenzene] + OCCOCCOCCO
3. CCCCCCC [heptane] + OCCOCCOCCOCCO
4. c1ccccc1 [benzene] + OCCOCCOCCOCCO

[107, 7.94, 26.1, 2.41]

Hey, quick one: what's activity coefficient for each of these?
1. CCCCCCC [heptane] + OCCOCCOCCO
2. CCCCCCCCC [nonane] + OCCOCCOCCO

1. 44.3
2. 81.4

Hey, quick one: what's activity coefficient for each of these?
1. CCCCCCCCCC [decane] + OCCOCCOCCOCCO
2. CCCCCCCC [octane] + OCCOCCOCCO

[55.2, 60.5]

State, in one line, measured activity coefficient of Cc1ccccc1 [toluene] + OCCOCCOCCO
5.56

###

# method.notes: activity coefficient (dimensionless); of the first substance listed, at infinite dilution; xn = mol fraction of the nth substance listed
# setup.conditions: 353.15 K; Liquid; Chromatography; x1 = 0
Please use Met whenever activity coefficient is not below 6, and Not met whenever it is.

CCCCCCC [heptane] + OCCOCCOCCO	Met

Say whether CCCCCCCCC [nonane] + OCCOCCOCCOCCO shows activity coefficient of 6 or more.
Met

Say whether CCc1ccccc1 [ethylbenzene] + OCCOCCOCCOCCO shows activity coefficient of 6 or more.
Not met

Say whether CCCCCCC [heptane] + OCCOCCOCCOCCO shows activity coefficient of 6 or more.
Met

Say whether CCCCCCCC [octane] + OCCOCCOCCO shows activity coefficient of 6 or more.
Met

###

# method.notes: activity coefficient (dimensionless); of the first substance listed, at infinite dilution; xn = mol fraction of the nth substance listed
# setup.conditions: 363.15 K; Liquid; Chromatography; x1 = 0
metric: activity coefficient
Numbers only.

Answered examples (5):
c1ccccc1 [benzene] + OCCOCCOCCOCCO	2.65
CCCCCCCCCC [decane] + OCCOCCOCCO	141
CCCCCCC [heptane] + OCCOCCOCCOCCO	32.1
c1ccccc1 [benzene] + OCCOCCOCCO	3.97
CCCCCCCCC [nonane] + OCCOCCOCCO	103

Hey, quick one: what's activity coefficient for each of these?
1. CCCCCCCCC [nonane] + OCCOCCOCCOCCO
2. Cc1ccccc1 [toluene] + OCCOCCOCCOCCO
3. CCCCCCCC [octane] + OCCOCCOCCO
4. Cc1ccccc1 [toluene] + OCCOCCOCCO
5. CCc1ccccc1 [ethylbenzene] + OCCOCCOCCOCCO
6. CCCCCCC [heptane] + OCCOCCOCCO
7. CCCCCCCCCC [decane] + OCCOCCOCCOCCO

1: 57.4; 2: 3.85; 3: 75.8; 4: 5.99; 5: 5.31; 6: 55.3; 7: 75.1

State, in one line, measured activity coefficient of CCc1ccccc1 [ethylbenzene] + OCCOCCOCCO
8.72

###

# method.notes: refractive index (Na D-line) (dimensionless)
# setup.conditions: 293.15 K; 101.33 kPa; Liquid; Standard Abbe refractometry
metric: refractive index
One number for each entry.

Answered examples (2):
CCCCCCCCC	1.4057
CCCCCCCC	1.3975

Hey, quick one: what's refractive index for each of these?
1. c1ccccc1
2. Cc1ccccc1

[1.5015, 1.4962]

Hey, quick one: what's refractive index for each of these?
1. OCCOCCOCCO
2. CCCCCCCCCC

1. 1.4556
2. 1.4113

Hey, quick one: what's refractive index for each of these?
1. CCCCCCC
2. CCc1ccccc1

[1.3878, 1.4955]

###

# method.notes: activity coefficient (dimensionless); of the first substance listed, at infinite dilution; xn = mol fraction of the nth substance listed
# setup.conditions: 373.1 K; Liquid; Chromatography; x1 = 0
metric: activity coefficient
Give bare numbers.

Answered examples (5):
CCCCCCCCCC [decane] + OCCOCCOCCOCCO	64.4
CCc1ccccc1 [ethylbenzene] + OCCOCCOCCOCCO	5
CCc1ccccc1 [ethylbenzene] + OCCOCCOCCO	8.39
c1ccccc1 [benzene] + OCCOCCOCCO	3.92
CCCCCCCC [octane] + OCCOCCOCCO	68.7

Hey, quick one: what's activity coefficient for each of these?
1. c1ccccc1 [benzene] + OCCOCCOCCOCCO
2. CCCCCCC [heptane] + OCCOCCOCCO
3. CCCCCCCCCC [decane] + OCCOCCOCCO
4. CCCCCCC [heptane] + OCCOCCOCCOCCO
5. CCCCCCCCC [nonane] + OCCOCCOCCO
6. Cc1ccccc1 [toluene] + OCCOCCOCCO
7. CCCCCCCCC [nonane] + OCCOCCOCCOCCO

1. 2.5
2. 50.2
3. 125
4. 29.8
5. 93
6. 5.85
7. 49.3

State, in one line, measured activity coefficient of Cc1ccccc1 [toluene] + OCCOCCOCCOCCO
3.62

###

# method.notes: activity coefficient (dimensionless); of the first substance listed, at infinite dilution; xn = mol fraction of the nth substance listed
# setup.conditions: 393.15 K; Liquid; Chromatography; x1 = 0
metric: activity coefficient
Give bare numbers.

CCCCCCCCC [nonane] + OCCOCCOCCO	73.9
CCCCCCCCCC [decane] + OCCOCCOCCOCCO	51.3

Hey, quick one: what's activity coefficient for each of these?
1. CCc1ccccc1 [ethylbenzene] + OCCOCCOCCO
2. CCCCCCCC [octane] + OCCOCCOCCO

[7.72, 56.7]

Hey, quick one: what's activity coefficient for each of these?
1. CCCCCCCCCC [decane] + OCCOCCOCCO
2. c1ccccc1 [benzene] + OCCOCCOCCOCCO
3. CCCCCCCCC [nonane] + OCCOCCOCCOCCO

95.6
2.37
39.7

Hey, quick one: what's activity coefficient for each of these?
1. CCc1ccccc1 [ethylbenzene] + OCCOCCOCCOCCO
2. CCCCCCC [heptane] + OCCOCCOCCOCCO
3. c1ccccc1 [benzene] + OCCOCCOCCO
4. Cc1ccccc1 [toluene] + OCCOCCOCCO
5. CCCCCCC [heptane] + OCCOCCOCCO
6. Cc1ccccc1 [toluene] + OCCOCCOCCOCCO

1: 4.58; 2: 23.1; 3: 3.75; 4: 5.51; 5: 40.6; 6: 3.37
